Ref: patent US20240391931A1

- experimental.target: EGFR (Homo sapiens, UniProt P00533)
- Sequence (P00533 25-1210): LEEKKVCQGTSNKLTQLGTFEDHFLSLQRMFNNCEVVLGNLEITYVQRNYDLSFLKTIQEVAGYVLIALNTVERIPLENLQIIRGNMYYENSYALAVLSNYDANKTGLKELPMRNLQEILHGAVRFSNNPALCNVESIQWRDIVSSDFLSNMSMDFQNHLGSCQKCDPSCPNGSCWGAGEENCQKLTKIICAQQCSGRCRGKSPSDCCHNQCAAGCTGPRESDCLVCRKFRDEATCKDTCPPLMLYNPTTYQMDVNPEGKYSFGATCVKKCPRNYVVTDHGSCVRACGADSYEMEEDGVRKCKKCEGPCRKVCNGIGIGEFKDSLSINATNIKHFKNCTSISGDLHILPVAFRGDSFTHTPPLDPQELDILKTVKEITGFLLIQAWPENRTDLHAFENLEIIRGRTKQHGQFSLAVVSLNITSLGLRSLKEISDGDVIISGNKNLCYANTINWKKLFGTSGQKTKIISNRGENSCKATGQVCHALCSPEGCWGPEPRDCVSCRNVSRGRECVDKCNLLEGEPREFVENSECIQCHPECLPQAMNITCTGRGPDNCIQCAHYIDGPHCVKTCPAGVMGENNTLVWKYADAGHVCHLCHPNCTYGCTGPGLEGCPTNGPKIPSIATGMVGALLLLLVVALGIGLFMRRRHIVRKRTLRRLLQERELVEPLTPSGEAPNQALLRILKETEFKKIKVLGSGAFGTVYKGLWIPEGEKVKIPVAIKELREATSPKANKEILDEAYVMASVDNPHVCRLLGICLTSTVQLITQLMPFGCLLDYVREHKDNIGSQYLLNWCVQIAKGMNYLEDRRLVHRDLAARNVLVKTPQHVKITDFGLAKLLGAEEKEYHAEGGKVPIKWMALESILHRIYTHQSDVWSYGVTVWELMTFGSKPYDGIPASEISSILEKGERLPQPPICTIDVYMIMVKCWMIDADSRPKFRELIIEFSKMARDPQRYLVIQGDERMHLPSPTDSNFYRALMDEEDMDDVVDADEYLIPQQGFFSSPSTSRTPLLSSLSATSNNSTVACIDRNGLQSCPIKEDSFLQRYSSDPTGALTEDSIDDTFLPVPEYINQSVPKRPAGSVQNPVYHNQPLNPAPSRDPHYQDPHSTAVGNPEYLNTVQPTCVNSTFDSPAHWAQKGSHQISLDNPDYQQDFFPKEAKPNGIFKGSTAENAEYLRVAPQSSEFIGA
- test.name: EGFR signaling (pEGFR Tyr1068/total EGFR MSD) in A431 cells
- Type: cell-based
- Design: endogenous in cells; host or cells: A431, N87
- particulars: ratio A431 pEGFR EC50 to BT474 pHER2 EC50
observable: Selectivity A431 EC50/BT474 EC50

>>> print(df.to_string())
                                   molecule                  experimental_target                        observable               measured
0  Cc1ccc(Oc2ccc(Nc3ncnc4sc5c(c34)CCN(C(=O)/C=C/CN3CC[C@H](F)C3)C5)cc2C)cn1  EGFR (Homo sapiens, UniProt P00533)  Selectivity A431 EC50/BT474 EC50  B (B: ≥ 20 and < 100)
1  Cc1cc(Nc2ncnc3sc4c(c23)CCN(C(=O)/C=C/CN2CC3CCC(C3)C2)C4)ccc1Oc1ccc2ncnn2c1  EGFR (Homo sapiens, UniProt P00533)  Selectivity A431 EC50/BT474 EC50  B (B: ≥ 20 and < 100)
2  Cc1cc(Nc2ncnc3sc4c(c23)CCN(C(=O)/C=C/CN(C)C)C4)ccc1Oc1ccn2ccnc2c1  EGFR (Homo sapiens, UniProt P00533)  Selectivity A431 EC50/BT474 EC50  B (B: ≥ 20 and < 100)
3  COc1ccc(Oc2ccc(Nc3ncnc4sc5c(c34)CCN(C(=O)/C=C/CN3CC[C@@H](CO)C3)C5)cc2C)cn1  EGFR (Homo sapiens, UniProt P00533)  Selectivity A431 EC50/BT474 EC50   C (C: ≥ 10 and < 20)
4  COc1ccc(Oc2ccc(Nc3ncnc4sc5c(c34)CCN(C(=O)/C=C/CN(C)C)CC5)cc2C)cn1  EGFR (Homo sapiens, UniProt P00533)  Selectivity A431 EC50/BT474 EC50  B (B: ≥ 20 and < 100)
5  Cc1ccc(Oc2ccc(Nc3ncnc4sc5c(c34)CCN(C(=O)/C=C/CN3CC4CC4C3)C5)cc2C)cn1 (centres unmarked)  EGFR (Homo sapiens, UniProt P00533)  Selectivity A431 EC50/BT474 EC50   C (C: ≥ 10 and < 20)
6  Cc1ccc(Oc2ccc(Nc3ncnc4sc5c(c34)CCN(C(=O)/C=C/CN3CCCC3C(N)=O)C5)cc2C)cn1 (centres unmarked)  EGFR (Homo sapiens, UniProt P00533)  Selectivity A431 EC50/BT474 EC50  B (B: ≥ 20 and < 100)
7  COc1ccc(Oc2ccc(Nc3ncnc4sc5c(c34)C(C)CN(C(=O)/C=C/CN(C)C)C5)cc2C)cn1 (centres unmarked)  EGFR (Homo sapiens, UniProt P00533)  Selectivity A431 EC50/BT474 EC50   C (C: ≥ 10 and < 20)

Hi team, please reply with Selectivity A431 EC50/BT474 EC50 for each item in this list.
1. Cc1ccc(Oc2ccc(Nc3ncnc4sc5c(c34)C(C)CN(C(=O)C=CCN3CCOCC3)C5)cc2C)cn1 (single isomer, unassigned) [Compound 177]
2. Cc1ccc(Oc2ccc(Nc3ncnc4sc5c(c34)CCN(C(=O)/C=C/CN3CC(C)(C)OC(C)(C)C3)C5)cc2C)cn1
3. C=CC(=O)N1CCc2c(sc3ncnc(Nc4ccc(Oc5ccc6ncnn6c5)c(Cl)c4)c23)C1
4. Cc1ccc(Oc2ccc(Nc3ncnc4sc5c(c34)CCN(C(=O)/C=C/CN3CCO[C@H](CO)C3)C5)cc2C)cn1

C (C: ≥ 10 and < 20)
B (B: ≥ 20 and < 100)
B (B: ≥ 20 and < 100)
B (B: ≥ 20 and < 100)
